Test system: Enterococcus faecalis
method.description: Antibacterial activity against Enterococcus faecalis ATCC 29212 after 20 to 24 hrs by two-fold microdilution method
Type: functional
Quick list: MIC per entry.
Enter your answer as a number in µg/mL; do not include the unit.

> print(dat)
                         compound.structure  assay.value
1  O=C1c2cccnc2C(=O)c2c1c(C(=O)OCCCCCCN1CCOCC1)c1ccc(Br)cn21        0.063
2  O=C1c2cccnc2C(=O)c2c1c(C(=O)OCCCCCN1CCCC1)c1ccc(Br)cn21          0.5
3  O=C1c2cccnc2C(=O)c2c1c(C(=O)OCCCCN1CCOCC1)c1ccc(Br)cn21         0.25
4  O=C1c2cccnc2C(=O)c2c1c(C(=O)OCCCCCN1CCCCC1)c1ccc(Br)cn21          0.5
5  CN1CCN(CCCCCOC(=O)c2c3c(n4cc(Br)ccc24)C(=O)c2ncccc2C3=O)CC1         0.25

Next up:
Query: Can you share its MIC? I mean this molecule: O=C1c2cccnc2C(=O)c2c1c(C(=O)OCCN1CCCC1)c1ccc(Br)cn21
Reply: 0.5
